Target sequence: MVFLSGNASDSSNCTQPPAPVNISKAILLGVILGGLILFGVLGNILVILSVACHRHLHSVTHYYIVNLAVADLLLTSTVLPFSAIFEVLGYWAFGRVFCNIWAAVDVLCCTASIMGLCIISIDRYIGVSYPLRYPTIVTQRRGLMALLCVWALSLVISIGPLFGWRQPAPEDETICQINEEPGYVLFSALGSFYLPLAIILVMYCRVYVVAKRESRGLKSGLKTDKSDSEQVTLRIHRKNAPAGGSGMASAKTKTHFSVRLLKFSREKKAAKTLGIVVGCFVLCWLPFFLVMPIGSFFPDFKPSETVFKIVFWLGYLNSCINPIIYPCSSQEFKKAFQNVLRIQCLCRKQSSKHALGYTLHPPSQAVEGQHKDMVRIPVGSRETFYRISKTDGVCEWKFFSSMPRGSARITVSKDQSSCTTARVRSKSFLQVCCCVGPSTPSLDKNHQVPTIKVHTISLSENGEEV
experimentalEndpoint: pKi
Give bare numbers, as −log10 of the molar value.

COc1ccccc1OCCNCC[C@@H]1CO[C@H](C(c2ccccc2)c2ccccc2)O1 (relative stereo)    7.30
COc1ccccc1OCCNCC(CO)OC(c1ccccc1)c1ccccc1 (centres undefined)    7.08
c1ccc(OCCNC[C@H]2CO[C@H](C(c3ccccc3)c3ccccc3)O2)cc1 (relative stereo)    6.92
COc1ccccc1OCCNCCC1COC(c2ccccc2)(c2ccccc2)O1 (centres undefined)    8.14
c1ccc(OCCNC[C@@H]2CO[C@H](C(c3ccccc3)c3ccccc3)O2)cc1 (relative stereo)    6.37

Report pKi for each item below.
1. c1ccc(OCCNCCOC(c2ccccc2)c2ccccc2)cc1
2. OCC(CNCCOc1ccccc1)OC(c1ccccc1)c1ccccc1 (centres undefined)
3. COc1ccccc1OCCNC[C@@H]1CO[C@H](C(c2ccccc2)c2ccccc2)O1 (relative stereo)
4. c1ccc(OCCNCC[C@H]2CO[C@H](C(c3ccccc3)c3ccccc3)O2)cc1 (relative stereo)

Reply:
7.77
6.85
6.01
7.05

---

- experimentSummary: Cmax in Sprague-Dawley rat plasma at 10 mg/kg, po measured upto 480 mins by LC/MS-MS analysis
- Type: ADME, organism-based
- Parameters: dose 10 mg/kg, route oral
experimentalEndpoint: Cmax (nM)
One number for each entry, in nM.

Lab note: COc1ccccc1OCCNCC1COC(c2ccccc2)(c2ccccc2)OC1.O=C(O)C(=O)O gave Cmax of 95

---

- testedTarget: 5-hydroxytryptamine receptor 1A (Homo sapiens) (UniProt P08908)
- Sequence (P08908 whole entry): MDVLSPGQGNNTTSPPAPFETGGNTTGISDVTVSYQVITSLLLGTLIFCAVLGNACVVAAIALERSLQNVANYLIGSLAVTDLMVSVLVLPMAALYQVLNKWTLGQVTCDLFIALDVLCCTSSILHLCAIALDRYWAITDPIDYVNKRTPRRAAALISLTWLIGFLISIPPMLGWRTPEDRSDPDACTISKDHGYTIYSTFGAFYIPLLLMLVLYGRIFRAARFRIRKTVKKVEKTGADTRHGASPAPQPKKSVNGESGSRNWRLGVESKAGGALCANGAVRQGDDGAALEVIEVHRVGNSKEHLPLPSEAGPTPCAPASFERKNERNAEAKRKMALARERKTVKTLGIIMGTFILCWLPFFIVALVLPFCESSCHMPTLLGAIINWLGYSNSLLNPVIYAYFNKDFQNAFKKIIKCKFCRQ
- appliedConditions: HeLa
- Description: Agonist activity at human recombinant 5HT1A receptor expressed in human HeLa cells assessed as increase in [35S]GTPgammaS binding incubated for 20 mins by liquid scintillation counter
pD2 below 8 gives not satisfied; pD2 at or above it gives satisfied.

Example entries begin here.
COc1ccccc1OCCNCCOC(c1ccccc1)c1ccccc1    not satisfied
COc1ccccc1OCCNCC1COC(c2ccccc2)(c2ccccc2)O1 (configuration not stated)    not satisfied
c1ccc(OCCNCC2COC(c3ccccc3)(c3ccccc3)O2)cc1 (configuration not stated)    satisfied
COc1ccccc1OCCNCC1CCOC(c2ccccc2)(c2ccccc2)O1 (configuration not stated)    satisfied

Now, please, on to the next molecule.
Query: In plain terms: is recorded pD2 at least 8 for COc1ccccc1OCCNCC[C@@H]1CO[C@H](C(c2ccccc2)c2ccccc2)O1 (relative stereo) ?
Reply: not satisfied

---

- testedTarget: UniProt P23944
- Sequence (P23944 whole entry): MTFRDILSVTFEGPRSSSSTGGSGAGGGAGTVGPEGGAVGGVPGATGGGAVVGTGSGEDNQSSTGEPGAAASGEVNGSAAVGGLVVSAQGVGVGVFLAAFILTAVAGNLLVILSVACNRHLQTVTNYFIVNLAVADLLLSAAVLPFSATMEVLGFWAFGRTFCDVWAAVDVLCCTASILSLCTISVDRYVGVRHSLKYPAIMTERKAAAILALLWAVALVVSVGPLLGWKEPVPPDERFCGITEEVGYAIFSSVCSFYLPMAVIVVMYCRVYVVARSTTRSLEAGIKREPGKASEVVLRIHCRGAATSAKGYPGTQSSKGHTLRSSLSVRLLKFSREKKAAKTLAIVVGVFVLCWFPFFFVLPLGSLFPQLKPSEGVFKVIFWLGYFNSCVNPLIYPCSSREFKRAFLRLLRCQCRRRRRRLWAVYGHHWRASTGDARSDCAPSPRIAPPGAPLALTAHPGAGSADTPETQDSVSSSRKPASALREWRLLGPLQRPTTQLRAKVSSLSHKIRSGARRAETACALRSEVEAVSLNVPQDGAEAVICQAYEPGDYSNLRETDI
- experimentSummary: Antagonist activity at alpha-1d adrenergic receptor in Wistar rat thoracic aorta assessed as inhibition of (-)-noradrenaline-induced contractions
pKb below 7 gives no; pKb at or above it gives yes.

Example entries begin here.
c1ccc(OCCNCCOC(c2ccccc2)c2ccccc2)cc1    yes
COc1ccccc1OCCNCC[C@H]1CO[C@H](C(c2ccccc2)c2ccccc2)O1 (relative stereo)    yes
c1ccc(OCCNCC2COC(c3ccccc3)(c3ccccc3)OC2)cc1    no
COc1ccccc1OCCNCC(CO)OC(c1ccccc1)c1ccccc1 (stereo not drawn)    yes
c1ccc(OCCNCC2COC(c3ccccc3)(c3ccccc3)O2)cc1 (stereo not drawn)    yes

Query: In plain terms: is recorded pKb at least 7 for COc1ccccc1OCCNCC1COC(c2ccccc2)(c2ccccc2)O1 (stereo not drawn) ?
Reply: yes

Query: In plain terms: is recorded pKb at least 7 for c1ccc(OCCNC[C@H]2CO[C@H](C(c3ccccc3)c3ccccc3)O2)cc1 (relative stereo) ?
Reply: no

Query: In plain terms: is recorded pKb at least 7 for COc1ccccc1OCCNCCC1COC(c2ccccc2)(c2ccccc2)O1 (stereo not drawn) ?
Reply: yes

---

- testedTarget: Alpha-1B adrenergic receptor (Rattus norvegicus)
- Sequence (whole entry): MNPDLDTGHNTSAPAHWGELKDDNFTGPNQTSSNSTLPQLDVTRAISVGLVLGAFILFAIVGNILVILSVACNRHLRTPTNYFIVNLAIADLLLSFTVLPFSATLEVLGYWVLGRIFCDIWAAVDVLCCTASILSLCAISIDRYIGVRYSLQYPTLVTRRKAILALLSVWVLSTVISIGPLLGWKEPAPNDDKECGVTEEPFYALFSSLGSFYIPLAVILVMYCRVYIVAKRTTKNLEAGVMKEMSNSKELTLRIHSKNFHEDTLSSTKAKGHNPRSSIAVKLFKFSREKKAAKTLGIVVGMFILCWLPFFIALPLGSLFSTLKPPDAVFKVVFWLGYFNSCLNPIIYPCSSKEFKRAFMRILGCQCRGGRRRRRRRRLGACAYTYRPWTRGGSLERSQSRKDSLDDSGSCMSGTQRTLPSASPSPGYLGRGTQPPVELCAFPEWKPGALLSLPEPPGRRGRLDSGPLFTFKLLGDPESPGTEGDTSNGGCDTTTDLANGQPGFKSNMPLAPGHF
- experimentSummary: Antagonist activity at alpha-1b adrenergic receptor in Wistar rat spleen assessed as inhibition of (-)-phenylephrine-induced contraction
- Format: tissue-based
Task for the reader: assign each of the following molecules its reported pKb.
One number for each entry.

COc1ccccc1OCCNCC(CO)OC(c1ccccc1)c1ccccc1 (stereo not given)    7.02
c1ccc(OCCNC[C@@H]2CO[C@H](C(c3ccccc3)c3ccccc3)O2)cc1 (relative stereo)    6.83
COc1ccccc1OCCNCCC1COC(c2ccccc2)(c2ccccc2)O1 (stereo not given)    6.93
c1ccc(OCCNCC[C@@H]2CO[C@H](C(c3ccccc3)c3ccccc3)O2)cc1 (relative stereo)    6.43

Turning now to a further record.
Lab note: c1ccc(OCCNCC[C@H]2CO[C@H](C(c3ccccc3)c3ccccc3)O2)cc1 (relative stereo) gave pKb of 6.66
